Molecular target: NLRP3 inflammasome (Homo sapiens, UniProt Q96P20)
Sequence (Q96P20 whole entry): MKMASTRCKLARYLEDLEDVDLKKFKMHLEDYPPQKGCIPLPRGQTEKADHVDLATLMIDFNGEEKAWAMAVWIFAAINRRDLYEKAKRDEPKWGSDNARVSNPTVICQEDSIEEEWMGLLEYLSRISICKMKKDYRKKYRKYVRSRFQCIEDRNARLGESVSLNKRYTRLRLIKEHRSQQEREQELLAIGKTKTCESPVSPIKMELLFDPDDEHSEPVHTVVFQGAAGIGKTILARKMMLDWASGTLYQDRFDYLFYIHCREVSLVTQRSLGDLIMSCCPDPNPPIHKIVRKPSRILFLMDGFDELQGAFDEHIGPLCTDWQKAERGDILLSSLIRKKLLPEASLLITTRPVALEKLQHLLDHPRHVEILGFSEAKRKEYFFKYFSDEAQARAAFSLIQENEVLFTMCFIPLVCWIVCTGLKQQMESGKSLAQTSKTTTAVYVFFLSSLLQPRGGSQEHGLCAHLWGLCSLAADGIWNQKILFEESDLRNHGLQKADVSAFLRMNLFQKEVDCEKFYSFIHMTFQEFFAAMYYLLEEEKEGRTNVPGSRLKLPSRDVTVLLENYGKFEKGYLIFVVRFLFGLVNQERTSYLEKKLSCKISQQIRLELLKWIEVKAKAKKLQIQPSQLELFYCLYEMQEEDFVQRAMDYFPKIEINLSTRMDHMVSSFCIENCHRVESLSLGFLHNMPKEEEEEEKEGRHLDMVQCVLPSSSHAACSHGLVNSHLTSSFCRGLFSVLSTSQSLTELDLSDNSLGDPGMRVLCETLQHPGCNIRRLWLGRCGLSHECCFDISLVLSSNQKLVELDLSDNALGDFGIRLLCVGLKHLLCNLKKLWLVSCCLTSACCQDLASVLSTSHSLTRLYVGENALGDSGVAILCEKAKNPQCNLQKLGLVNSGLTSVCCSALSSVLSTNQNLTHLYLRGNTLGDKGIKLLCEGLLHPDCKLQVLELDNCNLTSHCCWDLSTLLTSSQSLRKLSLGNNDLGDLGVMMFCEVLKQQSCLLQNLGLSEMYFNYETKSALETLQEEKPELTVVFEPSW
Assay: THP-1 ASC-GFP speck assay
Format: cell-based
Set-up: host or cells: THP-1 ASC-GFP cells, PMA-differentiated, LPS-primed, nigericin-stimulated
Conditions: THP-1 ASC-GFP cells, PMA differentiated, LPS primed, 10 μM nigericin; read-out: THP1 ASC Speck IC50
Quick reference for IC50 among some compounds
ASSAY METRIC: IC50 (nM)

1) NS(=O)(=NC(=O)Nc1c2c(c(F)c3c1CCC3)CCC2)c1cnn2c1OCC2 (racemic) [Example 29]    140
2) CC1CCc2cc3c(c(NC(=O)N=S(N)(=O)c4cnn5c4OCCC5)c21)CCC3 (single isomer, unassigned) [Example 129]    19
3) NS(=O)(=NC(=O)Nc1c2c(cc3c1CCC3)CCC2)c1cnn2c1OCC2 (single isomer, unassigned) [Example 125]    1700
4) NC1COc2c(S(N)(=O)=NC(=O)Nc3c4c(cc5c3CCC5)CCC4)cnn2C1 (single isomer, unassigned) [Example 58]    5500
5) N#CNS(=O)(=NC(=O)Nc1c2c(cc3c1CCC3)CCC2)c1cnn2c1OCCC2 (single isomer, unassigned) [Example 68]    330
6) NS(=O)(=NC(=O)Nc1c2c(c(F)c3c1CCC3)CCC2)c1cnn2c1OCCCC2 (racemic) [Example 30]    360
7) CC1CCn2ncc(S(N)(=O)=NC(=O)Nc3c4c(cc5c3CCC5)CCC4)c2OC1 (single isomer, unassigned) [Example 78]    93

====

Biological target: NLRP3 inflammasome (Homo sapiens)
Experiment: NLRP3 inflammasome activation assay in PBMCs, IL-1β release (ELISA / HTRF)
Assay type: cell-based
Parameters: were freshly isolated from human peripheral blood from healthy donors; StemCells Technologies; host or cells: primary human PBMCs, LPS-primed, nigericin-stimulated
Conditions: LPS primed, 10 μM nigericin, read-out: PBMC IL-1β IC50
pIC50: −log10 of the molar value.
ASSAY METRIC: pIC50

1. CN(C)[C@@H]1COc2c([S@](N)(=O)=NC(=O)Nc3c4c(c(F)c5c3CCC5)CCC4)cnn2C1 (single isomer, unassigned)    7.07
2. CNC1COc2c(S(N)(=O)=NC(=O)Nc3c4c(cc5c3CCC5)CCC4)cnn2C1 (single isomer, unassigned) [Example 26]    8.12
3. COc1cc(C(C)C)c(NC(=O)N=S(N)(=O)c2cnn3c2OCC(OC)C3)c(C(C)C)n1 (single isomer, unassigned) [Example 52]    4.82
4. NS(=O)(=NC(=O)Nc1c2c(c(F)c3c1CCC3)CCC2)c1cnn2c1OCCCC2 (racemic)    7.17

====

System: PBMCs
Assay: CTG (CellTiter-Glo) viability assay in PBMCs
Assay type: cell-based
Details: Homo sapiens, PBMC, LPS and nigericin stimulated
pIC50: −log10 of the molar value.
Quick reference for pIC50 among some compounds
ASSAY METRIC: pIC50

1. NS(=O)(=NC(=O)Nc1c2c(cc3c1CCC3)CCC2)c1cnn2c1OCCC2 (racemic) [Example 1]    6.52
2. Cn1cc(S(N)(=O)=NC(=O)Nc2c3c(cc4c2CCC4)CCC3)cn1 (racemic) [Example 5]    6.19
3. CN[C@@H]1COc2c(S(N)(=O)=NC(=O)Nc3c4c(cc5c3CCC5)CCC4)cnn2C1 (mixture of isomers)    8.10
4. CO[C@@H]1COc2c(S(N)(=O)=NC(=O)Nc3c4c(cc5c3CCC5)CCC4)cnn2C1 (mixture of isomers)    7.00
5. CC(C)c1cc(F)cc(C(C)C)c1NC(=O)N=S(N)(=O)c1cnn2c1OCCC2 (single isomer, unassigned) [Example 7]    8.52
6. NS(=O)(=NC(=O)Nc1c2c(c(F)c3c1CCC3)CCC2)c1cnn2c1OCCC2 (racemic) [Example 4]    7.46
7. Cn1ccc(S(N)(=O)=NC(=O)Nc2c3c(cc4c2CCC4)CCC3)n1 (racemic)    8.22
8. CN[C@@H]1COc2c(S(N)(=O)=NC(=O)Nc3c(C(C)C)cc(F)cc3C(C)C)cnn2C1 (mixture of isomers)    6.88
9. CC1(C)COc2c(S(N)(=O)=NC(=O)Nc3c4c(cc5c3CCC5)CCC4)cnn2C1 (racemic) [Example 6]    8.52
